biological target: T1, cyno PD-1 (soluble analyte in SPR) (cyno); assay: SPR (ProteOn XPR36), mAb captured on anti-human IgG Fc, cyno PD-1 as analyte, 25 C
T1 construct: also called cynomolgus PD-1
MEASURED ENDPOINT: pKd
pKd here: minus log base 10 of the concentration, concentration in moles per litre.

Below, each entry is followed by its recorded pKd result.
{"columns": ["BINDER", "pKd"],
 "data": [
  ["PD1B1091 (antibody, human IgG1, kappa, V domains shown, also called VH PD1H586; VL PD1L651) VH: QVQLVQSGSELKKPGASVKVSCKASGYTFTDYSMHWVRQAPGQGLEWMGWINIETGHPTYAQGFTGRFVFSLDTSVSTAYLQISSLKAEDTAVYFCARDYYGTYFYAMDYWGQGTLVTVSS VL: EIVLTQSPATLSLSPGERATLSCTASSSFSSSYLHWYQQKPGLAPRLLIYSTSNLASGIPDRFSGSGSGTDYTLTISRLEPEDFAVYYCHQYHRSPLTFGQGTKLEIKR", 8.03],
  ["PD1B1090 (antibody, human IgG1, kappa, V domains shown, also called VH PD1H585; VL PD1L651) VH: QVQLVQSGSELKKPGASVKVSCKASGYTFTDYSMHWVRQAPGQGLEWMGWINIETGYPTYAQGFTGRFVFSLDTSVSTAYLQISSLKAEDTAVYFCARDYYGTYFYAMDYWGQGTLVTVSS VL: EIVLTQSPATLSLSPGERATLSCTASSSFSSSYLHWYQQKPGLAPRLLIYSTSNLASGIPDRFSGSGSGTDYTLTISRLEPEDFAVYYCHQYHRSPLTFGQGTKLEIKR", 8.84]
]}

Q: Given PD1B1095 (antibody, human IgG1, kappa, V domains shown, also called VH PD1H587; VL PD1L652) VH: QVQLVQSGSELKKPGASVKVSCKASGYTFTDYSMHWVRQAPGQGLEWMGWINIETGWPTYAQGFTGRFVFSLDTSVSTAYLQISSLKAEDTAVYFCARDYYGTYFYAMDYWGQGTLVTVSS VL: EIVLTQSPATLSLSPGERATLSCTASSSVPSSYLHWYQQKPGLAPRLLIYSTSNLASGIPDRFSGSGSGTDYTLTISRLEPEDFAVYYCHQYHRSPLTFGQGTKLEIKR , state its recorded pKd.
Result: 8.37
